- subject-of-test: human Edg-2 receptor (LPA1 receptor) (Homo sapiens)
- Sequence (Q92633 whole entry): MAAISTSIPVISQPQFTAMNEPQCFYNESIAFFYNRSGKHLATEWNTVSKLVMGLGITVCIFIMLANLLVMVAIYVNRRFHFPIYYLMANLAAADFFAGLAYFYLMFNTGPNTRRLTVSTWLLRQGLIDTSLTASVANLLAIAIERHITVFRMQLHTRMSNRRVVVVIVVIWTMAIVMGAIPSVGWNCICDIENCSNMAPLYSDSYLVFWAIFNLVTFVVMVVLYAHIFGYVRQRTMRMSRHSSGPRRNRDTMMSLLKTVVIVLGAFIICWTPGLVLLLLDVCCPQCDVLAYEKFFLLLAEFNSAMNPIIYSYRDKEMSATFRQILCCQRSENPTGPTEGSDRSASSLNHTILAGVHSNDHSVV
- procedure-details: Edg-2 receptor inhibition by FLIPR calcium fluorescence measurement (LPA-mediated calcium liberation)
- Type: cell-based
- condition-summary: CHO cells stably overexpressing human Edg-2 receptor; LPA 18:1 100 nM; fluo-4 fluorescence; triplicate; read-out: Inhibitory concentrations IC50 for inhibition of the Edg-2 receptor
pIC50: −log10 of the molar value.
value-kind: pIC50

CSCCOc1ccc(C(=O)NC2(C(=O)O)Cc3ccccc3C2)cc1OCCc1cccc(C)c1 [Example 267]	> 7.00
COc1ccc(C(=O)NC2(C(=O)O)Cc3ccccc3C2)cc1OCCc1cc(F)ccc1F [Example 204]	> 7.00
COc1ccc(C(=O)NC2(C(=O)O)Cc3ccccc3C2)cc1OCC1CCCC1 [Example 42]	4.52 to 6.00
N#Cc1ccc(C(=O)NC2(C(=O)O)Cc3ccccc3C2)cc1NCCc1ccccc1F [Example 175]	4.52 to 6.00
COc1ccc(C(=O)NC2(C(=O)O)Cc3ccccc3C2)cc1OCCCc1ccccc1 [Example 151]	4.52 to 6.00

Now take the following compound into account.
Prompt: Data request, read-out pIC50, for COc1ccc(C(=O)NC2(C(=O)O)Cc3ccccc3C2)cc1-c1cc(Cl)ccc1C [Example 314]
Response: > 7.00
